biological target: T1, PSMA Fab (006 PSMA Fab); test: clonal phage ELISA on biotinylated PSMA Fab captured on neutravidin plates, anti-M13 HRP detection;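 also: crude clonal phage supernatants tested, before phage were added, wells were pretreated with PSMA antigen in blocking buffer or with blocking buffer only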
T1 construct: also called Anti-PSMA Fab; anti-PSMA Fab
READOUT_TYPE: Phage binding ELISA signal, Anti-PSMA Fab

TNKLCIPTWMCSGF [Phage-2745] ... 0.703
APQWCIPPWMCHDQ [Phage-2754] ... 0.691
DPKWCTPSWMCDWR [Phage-2755] ... 0.69
FDKWCTPPWMCKVF [Phage-2744] ... 0.708
VVKMCKPLWMCGIS [Phage-2746] ... 0.701
GNSWCTPQWMCTGF [Phage-2740] ... 0.712
SEKWCTPAWMCGDM [Phage-2747] ... 0.7
GNLWCSPPWMCFGM [Phage-2749] ... 0.696
ETSWCRPTWMCEGM [Phage-2752] ... 0.693
IMKWCTPTWMCEMG [Phage-2743] ... 0.708
EDIWCIPSWMCGVI [Phage-2751] ... 0.694
DVKWCKPRWMCNRD [Phage-2750] ... 0.695
DIKRCTPAWMCSWM [Phage-2742] ... 0.709
ANHWCIPSWMCTEV [Phage-2753] ... 0.692
DWKWCIPAWMCSQD [Phage-2748] ... 0.697
MSKWCVPTWMCQWQ [Phage-2741] ... 0.711
